These data points were gathered from patent US8796286B2.

# measurement-protocol: In vivo pharmacokinetics in portal hypertension patients (plasma HPLC)
# condition: human, plasma; patients with portal hypertension; 10 mg oral; mean ± standard deviation; read-out: Half-life (converted)
# Method: Nine volunteers among portal hypertension patients who were in the criterion of age from 19-45 and weight over 45 kg (within 15% deviation of ideal body weight) participated in experiments. They were all volunteers who agreed in writing to join the experiments and were trustworthy, cooperative and willing to follow the rules. A double blind method was used for the experiments. At 8-9 am on the test day, test medicines were given with 240 mL of water to volunteers. […]
quantity: half-life
Give the number first and the unit second.

Identify the reported half-life for the following entry. CCCc1nc(C)c2c(=O)[nH]c(-c3cc(S(=O)(=O)N4CCN(CC)CC4)ccc3OCC)nn12 [Vardenafil, vardenafil]
6.3 h
